biological target: PLK1 (Homo sapiens, UniProt P53350); construct: endogenous in cells; host or cells: HeLa; experiment: PLK1 protein degradation in HeLa cells, Western blotting (PLK1/GAPDH ratio); assay type: cell-based; details: 6 hours compound incubation, measured only if the grade of Dmax is A or B
Sequence (P53350 whole entry): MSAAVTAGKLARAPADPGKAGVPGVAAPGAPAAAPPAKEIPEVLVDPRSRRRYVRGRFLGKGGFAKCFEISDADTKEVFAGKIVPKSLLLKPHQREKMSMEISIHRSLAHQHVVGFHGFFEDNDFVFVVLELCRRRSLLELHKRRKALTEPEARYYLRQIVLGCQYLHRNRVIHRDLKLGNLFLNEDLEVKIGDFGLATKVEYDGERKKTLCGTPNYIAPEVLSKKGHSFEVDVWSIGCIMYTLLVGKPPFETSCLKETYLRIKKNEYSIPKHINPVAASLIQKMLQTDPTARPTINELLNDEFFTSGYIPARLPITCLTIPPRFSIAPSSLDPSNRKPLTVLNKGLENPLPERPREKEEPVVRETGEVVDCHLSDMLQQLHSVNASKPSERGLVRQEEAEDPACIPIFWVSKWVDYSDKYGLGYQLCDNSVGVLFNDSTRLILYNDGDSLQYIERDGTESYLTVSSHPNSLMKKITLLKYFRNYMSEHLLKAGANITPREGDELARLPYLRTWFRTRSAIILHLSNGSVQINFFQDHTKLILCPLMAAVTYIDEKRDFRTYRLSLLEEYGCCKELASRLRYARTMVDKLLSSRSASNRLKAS
Recorded DC50, one value per entry.

The cases that follow already have their DC50 on record.
[
  {
    "Compound": "COc1cc(C(=O)NC2CCN(CCCCCCNc3cccc4c3C(=O)N(C3CCC(=O)NC3=O)C4=O)CC2)c(F)cc1Nc1ncc2c(n1)N(C1CCCC1)CC(F)(F)C(=O)N2C (stereo not shown)",
    "DC50": "≤ 500 nM"
  },
  {
    "Compound": "COc1cc(C(=O)NC2CC3(C2)CN(C(=O)CCCCNc2cccc4c2C(=O)N(C2CCC(=O)NC2=O)C4=O)C3)c(F)cc1Nc1ncc2c(n1)N(C1CCCC1)CC(F)(F)C(=O)N2C (stereo not shown)",
    "DC50": "≤ 50 nM"
  },
  {
    "Compound": "COc1cc(C(=O)N[C@H]2CCN(C(=O)COCCOCCOCCOCCNc3cccc4c3C(=O)N(C3CCC(=O)NC3=O)C4=O)C2)c(F)cc1Nc1ncc2c(n1)N(C1CCCC1)CC(F)(F)C(=O)N2C (stereo partly shown)",
    "DC50": "≤ 50 nM"
  },
  {
    "Compound": "COc1cc(C(=O)N[C@H]2CCN(C(=O)CCC(=O)N3CCN(c4ccc5c(c4)C(=O)N(C4CCC(=O)NC4=O)C5=O)CC3)C2)c(F)cc1Nc1ncc2c(n1)N(C1CCCC1)CC(F)(F)C(=O)N2C (stereo partly shown)",
    "DC50": "≤ 50 nM"
  },
  {
    "Compound": "COc1cc(C(=O)NC2CCN(CCOCCOCCOCCOCC#Cc3cccc4c3C(=O)N(C3CCC(=O)NC3=O)C4=O)CC2)c(F)cc1Nc1ncc2c(n1)N(C1CCCC1)CC(F)(F)C(=O)N2C (stereo not shown)",
    "DC50": "≤ 50 nM"
  }
]

In: Give the reported value of DC50 for this record: CN1C(=O)C(F)(F)CN(C2CCCC2)c2nc(Nc3cc(F)c(C(=O)NC4CCN(CCOCCOCCNc5cccc6c5C(=O)N(C5CCC(=O)NC5=O)C6=O)CC4)cc3OC3CC3)ncc21 (stereo not shown)
Out: ≤ 50 nM

In: Output measured DC50 for this item: COc1cc(C(=O)NC2CCN(CCOCCOCCOCCOCCNc3cccc4c3C(=O)N(C3CCC(=O)NC3=O)C4=O)CC2)c(F)cc1Nc1ncc2c(n1)N(C1CCCC1)CC(F)(F)C(=O)N2C (stereo not shown)
Out: ≤ 50 nM
